target: HLA-A*02:01; test: IEDB peptide-MHC binding, purified MHC/direct/fluorescence; filed as Kd, often an IC50 or EC50 that approximates it; bounds were set here for any values at or beyond the usual limits of such assays; conditions: source organism: Cowpox virus
pKd: −log10 of the molar value.
Endpoint Label: pKd

Per the records, this sequence ( `ILQDRIRMY` ) has pKd equal to ≤ 4.70

###

target: HLA-A*01:01; assay: IEDB peptide-MHC binding, purified MHC/competitive/radioactivity; filed as Kd, often an IC50 or EC50 that approximates it; bounds were set here for any values at or beyond the usual limits of such assays; conditions: source organism: Mammarenavirus choriomeningitidis
pKd: −log10 of the molar value.
Endpoint Label: pKd

According to the records, this sequence `PDLKTIHNIL` displays pKd of ≤ 4.15

Ref: the Immune Epitope Database (IEDB)
